The reported measurements were obtained from patent US10059733B2.

experiment: TC50 assay in Huh7 cells, 48 h (CellTiter 96); conditions: human, Huh7 cells
Consider the following compounds; for each one, report its CC50 at 48 h.
Numbers only, in µM.

> print(dat)
                                   compound  endpoint.unit  measured
1  O=C(Nc1ccn(C2O[C@H](CO)[C@@H](O)C2(F)F)c(=O)n1)c1ccc2c(c1)C(=O)c1ccccc1C2=O (some centres unmarked)             µM       249
2  CCCC(CCC)C(=O)Nc1ccn([C@@H]2O[C@@H]3CO[P@@](=O)(OC(C)C)O[C@H]3C2(F)F)c(=O)n1             µM       175
3  COc1ccc2cc(C(=O)Nc3ccn(C4O[C@H](CO)[C@@H](O)C4(F)F)c(=O)n3)ccc2c1 (some centres unmarked)             µM       168
4  O=C(Nc1ccn(C2O[C@H](CO)[C@@H](O)C2(F)F)c(=O)n1)c1ccc2c(c1)CCCC2 (some centres unmarked)             µM       132
5  O=C(Nc1ccn(C2O[C@H](CO)[C@@H](O)C2(F)F)c(=O)n1)c1ccc2c(c1)OCO2 (some centres unmarked)             µM       473

Would you mind listing CC50 at 48 h for each of the following compounds?
1. O=C(Nc1ccn(C2O[C@H](CO)[C@@H](O)C2(F)F)c(=O)n1)c1cccc2c1CCCC2 (some centres unmarked)
2. O=C(Nc1ccn(C2O[C@H](CO)[C@@H](O)C2(F)F)c(=O)n1)c1ccc2c(c1)CCC2 (some centres unmarked)
3. O=C(Nc1ccn(C2O[C@H](CO)[C@@H](O)C2(F)F)c(=O)n1)c1ccc2cc(Br)ccc2c1 (some centres unmarked)
4. O=C(Nc1ccn(C2O[C@H](CO)[C@@H](O)C2(F)F)c(=O)n1)c1ccc2ccccc2c1 (some centres unmarked)
5. CCCC(CCC)C(=O)Nc1ccn(C2O[C@H](CO)[C@@H](O)C2(F)F)c(=O)n1 (some centres unmarked)

Result:
1. 92
2. 378
3. 74
4. 125
5. 383

###

system: HCV luciferase replicon; test: IC50 assay: inhibition of the HCV luciferase replicon in Huh7 cells; assay type: cell-based; settings: TC50 in Huh7 / IC50 HCV replicon, 48 h
Consider the following molecules; for each one, report its Therapeutic Index (TC50/IC50).

> print(dat)
                                   molecule  measured
1  COc1ccc2cc(C(=O)Nc3ccn(C4O[C@H](CO)[C@@H](O)C4(F)F)c(=O)n3)ccc2c1 (stereo partly shown)     1,796
2  O=C(Nc1ccn(C2O[C@H](CO)[C@@H](O)C2(F)F)c(=O)n1)c1ccc2c(c1)C(=O)c1ccccc1C2=O (stereo partly shown)    19,450
3  O=C(Nc1ccn(C2O[C@H](CO)[C@@H](O)C2(F)F)c(=O)n1)C1Cc2ccccc2C1 (stereo partly shown)   >50,000

Now consider a different molecule.
Q: Requested read-out: Therapeutic Index (TC50/IC50). Entry: O=C(Nc1ccn(C2O[C@H](CO)[C@@H](O)C2(F)F)c(=O)n1)c1ccc2c(c1)CCC2 (stereo partly shown)
Result: 6,451
